Measured values drawn from patent US20220017636A1 for this set.

Overview of reported Signal/background across a group of binders:
target: T1, SLK peptide complexed with HLA-A*02:01 on T2 cells (human); test: flow cytometry, peptide-loaded T2 cells;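 also: binding of single-chain Fv antibody constructs, raised in XenoMouse, to peptide-pulsed T2 cells measured by flow cytometry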
T1 construct: whole, on cells
Metric name: Signal/background

Binder: 18182-G6 (scFv, scFv in bacterial lysate, detected with anti-Flag M2) scFv: EVQLLESGGGLVQPGGSLRLSCAASGFTFSSYAMSWVRQAPGKGLEWVSAISGSGGGTYYADSVKGRFTISRDNSKNTLYLQMNSLRAEDTAAYYCVTGKGVHLGFDYWGQGTLVTVSSGGGGSGGGGSGGGGSELVLTQPPSVSVAPGQTARITCGGNNIGSKSVHWHQQKPGQSPVLVIYDDNDRPSGIPERFSGFNSGNTATLTISRVEAGDEADYYCQVWDSSSDHVVFGGGTKLTVL
Reported value: 1

Binder: 18182-E1 (scFv, scFv in bacterial lysate, detected with anti-Flag M2) scFv: EVQLLESGGGLVQPGGSLRLSCAASGFTFSSHAMSWVRQAPGKGLEWVSAISGSGGGTYNADSVKGRFTISRDNSKNTLYLQMNSLRAEDTAAYYCVTGKGVHLGFDYWGQGTLVTVSSGGGGSGGGGSGGGGSELVLTQPPSVSVAPGQTARITCGGNNIGSKSVHWYQQKPGQAPVMVVYDDNDRPSGIPERFSGSNSGNTATLTISRVEAGDEADYYCQVWDSSSDHVVFGGGTKLTVL
Reported value: 1

Binder: 18182-E5 (scFv, scFv in bacterial lysate, detected with anti-Flag M2) scFv: EVQLLESGGGLVQPGGSLRLSCAASGFTFSSYAMSWVRQAPGKGLEWVSTISGSGGGTYYADSVKGRFTISRDNSKNTLYLQMNSLRAEDTAVYYCATGKGVHLGFDYWGQGTLVTVSSGGGGSGGGGSGGGGSELVLTQPPSVSVAPGQTARITCGGNNIGSKSVHWHQQKPGQAPVLVVYDDNDRPSGIPERFSGSNSGNTATLTISRVEAGDEADYYCQVWDYSSDHVVFGGGTKLTVL
Reported value: 1

Binder: 18182-G2 (scFv, scFv in bacterial lysate, detected with anti-Flag M2) scFv: EVQLLESGGGLVQPGGSLRLSCAASGFTFSSHAMSWVRQAPGKGLEWVSAISGSGGGTYNADSVKGRFTISRDNSKNTLYLQMNSLRAEDTAAYYCVTGKGVHLGFDYWGQGTLVTVSSGGGGSGGGGSGGGGSELVLTQPPSVSVAPGQTARITCGGNNIGSKSVHWYQQKPGQAPVMVVYDDNDRPSGIPERFSGSNSGNTATLTISRVEAGDEADYYCQVWDSSSDHVIFGGGTKLTVL
Reported value: 1

Binder: 18089-B2 (scFv, scFv in bacterial lysate, detected with anti-Flag M2) scFv: EVQLLESGGGLVQPGGSLRLSCAASGFTFSSYAMSWVRQAPGRGLEWVSTISISGGSTNYADSVKGRFTISRDNSKNTLYLQMNSLRAEDTAVYYCAKDGGSGWFPKLLHYGLDVWGQGTTVTVSSGGGGSGGGGSGGGGSELQMTQSPSSLSASVGDRVTITCQASQDISNYLNWYQQKPGKAPKLLIYAASSLQSGVPSRFSGSGSGTDFTLTISSLQPEDFATYYCQQSYSIPLTFGGGTKVEIK
Reported value: 1.1

Binder: 18181-A6 (scFv, scFv in bacterial lysate, detected with anti-Flag M2) scFv: EVQLLESGGGLVQPGGSLRLSCAASGFTFSNAWMSWVRQAPGKGLEWVGRIKGNTYGGTTDYAAPVKGRFTISRDDSKNTLYLQMNSLKTEDTAVYYCTTPSYSGSYYNYFSVMDVWGQGTTVTVSSGGGGSGGGGSGGGGSELVMTQSPSSLSASVGDRVTITCRASQSISSYLNWYQQKPGRAPKLLIFAASSLQGGVPSRFSGSGSGTDFTLTISSLQPEDFATYYCQQTYSMPFTFGPGTKLEIK
Reported value: 1.1

Binder: 18093-B11 (scFv, scFv in bacterial lysate, detected with anti-Flag M2) scFv: EVQLLESGGGLVKPGGSLRLSCAASGFTFSDYYMSWIRQAPGKGLEWVSYISKSGSTIYYADSVKGRFTISRDNAKNSLYLQMNSLRAEDTAVYYCATYNYGHFDYWGQGTLVTVSSGGGGSGGGGSGGGGSELVLTQPPSVSVAPGQTARITCGGNNIGSKSVHWYQQKPGQAPVLVVYDDSDRPSGIPERFSGSNSGNTATLTISRVEAGDEADYYCQVWDSSSDHHVVFGGGTKLTVL
Reported value: 1.1

Binder: 18179-A7 (scFv, scFv in bacterial lysate, detected with anti-Flag M2) scFv: EVQLLESGGGLVKPGGSLRLSCAASGFTFSNAWMSWVRQAPGKGLEWVGRIKGNTYGGTTDYAAPVKGRFTISRDDSKNTLFLQMNSLKTEDTAVYYCTTPSYSGSYYNYFSVMDVWGQGTTVTVSSGGGGSGGGGSGGGGSELVMTQSPSSLSASVGDRVTITCRTSQSISSYLNWYQQKPGRAPKLLIFAASSLQGGVPSRFSGSGSGTDFTLTISSLQPEDFATYYCQQTYSMPFTFGPGTKVDIK
Reported value: 1

Binder: 18081-B9 (scFv, scFv in bacterial lysate, detected with anti-Flag M2) scFv: EVQLLESGPGLVKPSETLSLTCTVSGDSISSSRYYWGWIRQPPGKGLEWIGSIYYSGSTYYNPSLKSRVTISVDTSKNQFSLKLSSVTAADTAVYYCARGIFGVITYFDYWGQGTLVTVSSGGGGSGGGGSGGGGSELVMTQSPDSLAVSLGERATINCKSSQSVLYSSNNKNYLAWYQQKPGQPPKLLIYWASTRESGVPDRFSGSGSGTDFTLTISSLQAEDVAVYYCQQFYSTPITFGQGTRLEIK
Reported value: 1.1

Binder: 18182-G8 (scFv, scFv in bacterial lysate, detected with anti-Flag M2) scFv: EVQLLESGGGLVKPGGSLRLSCAASGFTFSSYAMNWVRQAPGKGLEWVSAISGSGGGTYYADSGKGRFTISRDNSKNTLYLQMNSLRAEDTAVYYCATGKGVHLNFDYWGQGTLVTVSSGGGGSGGGGSGGGGSELVLTQPPSVSVAPGQTARITCGGNNIGSKSVHWYQQKPGQAPVMVVYDDNDRPSGIPERFSGSNSGNTATLTISRVEAGDEADYYCQVWDSSSDHVVFGGGTKLTVL
Reported value: 1.1
